Just for reference, paper PMC6150229 is where these values come from.

Experiment: Pharmacokinetic study in sham and myocardial ischemia model rats after a single oral dose of QSKL (UHPLC-psMS/MS of plasma, non-compartmental analysis)
Measurement Conditions: male, Sprague-Dawley, rat, plasma, po, 8 g/kg, t1/2, model group (MG, myocardial ischemia) rats, oral administration of QSKL, plasma, mean ± SD, n = 6
Listing of entries alongside the reported half-life.
Give the number; h is assumed, so skip it.

Example molecules with recorded half-life:
[
  {
    "Molecule": "C[C@]1(OC(=O)/C=C/c2ccccc2)C[C@@H](O)[C@]2(O)C=CO[C@@H](O[C@@H]3O[C@H](CO)[C@@H](O)[C@H](O)[C@H]3O)[C@@H]21 [harpagoside]",
    "Recorded Measurement": 16.1
  },
  {
    "Molecule": "O=C(/C=C/c1ccc(O)cc1)c1ccc(O)cc1O [isoliquiritigenin]",
    "Recorded Measurement": 4.69
  },
  {
    "Molecule": "Cc1coc2c1C(=O)C(=O)c1c-2ccc2c1CCCC2(C)C [tanshinone IIA]",
    "Recorded Measurement": 18
  },
  {
    "Molecule": "CC1(C)[C@@H](O[C@H]2O[C@H](C(=O)O)[C@@H](O)[C@H](O)[C@H]2O[C@@H]2O[C@H](C(=O)O)[C@@H](O)[C@H](O)[C@H]2O)CC[C@]2(C)[C@H]3C(=O)C=C4[C@@H]5C[C@@](C)(C(=O)O)CC[C@]5(C)CC[C@@]4(C)[C@]3(C)CC[C@@H]12 [glycyrrhizic acid]",
    "Recorded Measurement": 27.8
  },
  {
    "Molecule": "COc1ccc(-c2coc3cc(O)ccc3c2=O)cc1 [formononetin]",
    "Recorded Measurement": 3.81
  },
  {
    "Molecule": "CC1(C)[C@@H](O)CC[C@]2(C)[C@H]3C(=O)C=C4[C@@H]5C[C@@](C)(C(=O)O)CC[C@]5(C)CC[C@@]4(C)[C@]3(C)CC[C@@H]12 [glycyrrhetic acid]",
    "Recorded Measurement": 26.3
  },
  {
    "Molecule": "COC(=O)C1=CO[C@@H](O[C@@H]2O[C@H](CO)[C@@H](O)[C@H](O)[C@H]2O)[C@@H]2[C@H](C)O[C@@H](O)C[C@H]12 [morroniside]",
    "Recorded Measurement": 14.2
  }
]

Supply reported half-life belonging to this molecule: COc1ccc(-c2coc3cc(O)ccc3c2=O)cc1O [calycosin]
9.27

----------
Experiment: Pharmacokinetic study in sham and myocardial ischemia model rats after a single oral dose of QSKL (UHPLC-psMS/MS of plasma, non-compartmental analysis)
Measurement Conditions: male, Sprague-Dawley, rat, plasma, po, 8 g/kg, AUC0–∞, model group (MG, myocardial ischemia) rats, oral administration of QSKL, plasma, mean ± SD, n = 6
Listing of entries alongside the reported AUC(0-inf).

[
  {
    "Compound": "C[C@]1(OC(=O)/C=C/c2ccccc2)C[C@@H](O)[C@]2(O)C=CO[C@@H](O[C@@H]3O[C@H](CO)[C@@H](O)[C@H](O)[C@H]3O)[C@@H]21 [harpagoside]",
    "Endpoint Name": "AUC(0-inf)",
    "Recorded Measurement": "2.2 ng·h/mL"
  },
  {
    "Compound": "COC(=O)C1=CO[C@@H](O[C@@H]2O[C@H](CO)[C@@H](O)[C@H](O)[C@H]2O)[C@@H]2[C@H](C)O[C@@H](O)C[C@H]12 [morroniside]",
    "Endpoint Name": "AUC(0-inf)",
    "Recorded Measurement": "29.2 ng·h/mL"
  }
]

Supply reported AUC(0-inf) belonging to this compound: `COc1ccc(-c2coc3cc(O)ccc3c2=O)cc1O`
1.04 ng·h/mL

Supply reported AUC(0-inf) belonging to this compound: `O=C(/C=C/c1ccc(O)cc1)c1ccc(O)cc1O`
1.71 ng·h/mL

----------
Experiment: Pharmacokinetic study in sham and myocardial ischemia model rats after a single oral dose of QSKL (UHPLC-psMS/MS of plasma, non-compartmental analysis)
Measurement Conditions: male, Sprague-Dawley, rat, plasma, po, 8 g/kg, Cmax, sham group (SG) rats, oral administration of QSKL, plasma, mean ± SD, n = 6
Listing of entries alongside the reported Cmax.
Give the number; ng/mL is assumed, so skip it.

Example compounds with recorded Cmax:
[
  {
    "Item Smiles": "O=C(/C=C/c1ccc(O)cc1)c1ccc(O)cc1O",
    "Unit Annotation": "ng/mL",
    "Cmax": 0.389
  },
  {
    "Item Smiles": "CC1(C)[C@@H](O[C@H]2O[C@H](C(=O)O)[C@@H](O)[C@H](O)[C@H]2O[C@@H]2O[C@H](C(=O)O)[C@@H](O)[C@H](O)[C@H]2O)CC[C@]2(C)[C@H]3C(=O)C=C4[C@@H]5C[C@@](C)(C(=O)O)CC[C@]5(C)CC[C@@]4(C)[C@]3(C)CC[C@@H]12",
    "Unit Annotation": "ng/mL",
    "Cmax": 3.34
  }
]

Supply reported Cmax belonging to this compound: `CC1(C)[C@@H](O)CC[C@]2(C)[C@H]3C(=O)C=C4[C@@H]5C[C@@](C)(C(=O)O)CC[C@]5(C)CC[C@@]4(C)[C@]3(C)CC[C@@H]12`
230

Supply reported Cmax belonging to this compound: `Cc1coc2c1C(=O)C(=O)c1c-2ccc2c1CCCC2(C)C`
0.376

----------
Experiment: in vivo
Measurement Conditions: male, Sprague-Dawley, rat, po, 8 g/kg, t1/2
Tag: satisfied if measured half-life is not below 10 h, not satisfied if it is.

Examples from the recorded data:
[
  {
    "Compound": "Cc1cccc2c3c(ccc12)C1=C(C(=O)C3=O)[C@@H](C)CO1 [dihydrotanshinone I]",
    "Category": "not satisfied"
  },
  {
    "Compound": "Cc1coc2c1C(=O)C(=O)c1c-2ccc2c(C)cccc12 [tanshinone I]",
    "Category": "satisfied"
  },
  {
    "Compound": "C[C@H]1COC2=C1C(=O)C(=O)c1c2ccc2c1CCCC2(C)C [cryptotanshinone]",
    "Category": "satisfied"
  },
  {
    "Compound": "O=c1cc(-c2ccc(O)c(O)c2)oc2cc(O[C@@H]3O[C@H](CO)[C@@H](O)[C@H](O)[C@H]3O)cc(O)c12 [luteoloside]",
    "Category": "satisfied"
  },
  {
    "Compound": "O=C1C[C@@H](c2ccc(O[C@@H]3O[C@H](CO)[C@@H](O)[C@H](O)[C@H]3O)cc2)Oc2cc(O)ccc21 [liquiritin]",
    "Category": "not satisfied"
  }
]

Quick check, half-life >= 10 h? O=C1C[C@@H](c2ccc(O)cc2)Oc2cc(O)ccc21 [liquiritigenin]
not satisfied

----------
Experiment: Pharmacokinetic study in sham and myocardial ischemia model rats after a single oral dose of QSKL (UHPLC-psMS/MS of plasma, non-compartmental analysis)
Measurement Conditions: male, Sprague-Dawley, rat, plasma, po, 8 g/kg, Tmax, rats, after oral dosing QSKL 8.0 g/kg
Endpoint Name: Tmax (h)
Give the number; h is assumed, so skip it.

Supply reported Tmax belonging to this molecule: `Cc1coc2c1C(=O)C(=O)c1c-2ccc2c1CCCC2(C)C`
8

----------
Experiment: Pharmacokinetic study in sham and myocardial ischemia model rats after a single oral dose of QSKL (UHPLC-psMS/MS of plasma, non-compartmental analysis)
Measurement Conditions: male, Sprague-Dawley, rat, plasma, po, 8 g/kg, Tmax, sham group (SG) rats, oral administration of QSKL, plasma, mean ± SD, n = 6
Listing of entries alongside the reported log10 of Tmax.
Give log10 of Tmax, with Tmax taken in min.

Example compounds with recorded log10 of Tmax:
[
  {
    "Compound": "O=C(/C=C/c1ccc(O)cc1)c1ccc(O)cc1O",
    "log10 of Tmax": 0.95
  },
  {
    "Compound": "CC1(C)[C@@H](O)CC[C@]2(C)[C@H]3C(=O)C=C4[C@@H]5C[C@@](C)(C(=O)O)CC[C@]5(C)CC[C@@]4(C)[C@]3(C)CC[C@@H]12",
    "log10 of Tmax": 2.92
  },
  {
    "Compound": "COc1ccc(-c2coc3cc(O)ccc3c2=O)cc1",
    "log10 of Tmax": 1.56
  }
]

Supply reported log10 of Tmax belonging to this compound: `COc1ccc(-c2coc3cc(O)ccc3c2=O)cc1O`
1.30

Supply reported log10 of Tmax belonging to this compound: `Cc1coc2c1C(=O)C(=O)c1c-2ccc2c1CCCC2(C)C`
1.60

Supply reported log10 of Tmax belonging to this compound: COC(=O)C1=CO[C@@H](O[C@@H]2O[C@H](CO)[C@@H](O)[C@H](O)[C@H]2O)[C@@H]2[C@H](C)O[C@@H](O)C[C@H]12 [morroniside]
1.35

Supply reported log10 of Tmax belonging to this compound: `CC1(C)[C@@H](O[C@H]2O[C@H](C(=O)O)[C@@H](O)[C@H](O)[C@H]2O[C@@H]2O[C@H](C(=O)O)[C@@H](O)[C@H](O)[C@H]2O)CC[C@]2(C)[C@H]3C(=O)C=C4[C@@H]5C[C@@](C)(C(=O)O)CC[C@]5(C)CC[C@@]4(C)[C@]3(C)CC[C@@H]12`
1.94
